The measurements presented in this section are drawn from patent US20210363269A1.

experimentalTarget: T1, NOD mouse SIRP-α D1 domain (mouse (NOD strain))
T1 chain: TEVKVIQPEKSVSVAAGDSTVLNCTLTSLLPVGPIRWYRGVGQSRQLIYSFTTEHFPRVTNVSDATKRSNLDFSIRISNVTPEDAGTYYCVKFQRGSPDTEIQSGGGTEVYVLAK
experimentDescription: SPR, ProteOn, antibody on chip
measureName: koff (s⁻¹)
Give bare numbers, in s⁻¹.

Provide each entry's koff from the list below.
1. AB3c (antibody, mouse IgG2a, V domains shown, Full-length mouse IgG2a) VH: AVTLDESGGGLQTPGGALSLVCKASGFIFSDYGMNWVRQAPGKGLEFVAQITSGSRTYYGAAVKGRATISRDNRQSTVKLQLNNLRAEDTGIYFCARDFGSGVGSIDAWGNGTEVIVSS VL: ALTQPASVSANLGGTVKITCSGSRGRYGWYQQRSPGSAPVTVIYRDNQRPSNIPSRFSSSTSGSTSTLTITGVQADDESVYFCGSYDGSIDIFGAGTTLTVL
2. AB27c (antibody, mouse IgG2a, V domains shown, Full-length mouse IgG2a) VH: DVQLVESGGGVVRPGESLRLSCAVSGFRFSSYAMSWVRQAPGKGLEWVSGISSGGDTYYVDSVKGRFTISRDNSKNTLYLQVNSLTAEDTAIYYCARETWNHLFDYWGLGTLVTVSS VL: ALTQPASVSADLGETVKITCSGGDSSSHYYGWYQQKSPGSAPVTVIYSDDERPSDIPSRFSGSASGSTATLTITGVRVEDEAIYYCGAYDGSTYANTFGAGTTLTVL
3. AB25c (antibody, mouse IgG2a, V domains shown, Full-length mouse IgG2a) VH: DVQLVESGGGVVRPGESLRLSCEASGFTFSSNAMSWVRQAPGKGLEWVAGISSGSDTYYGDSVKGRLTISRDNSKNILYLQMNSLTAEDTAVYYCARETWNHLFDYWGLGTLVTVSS VL: ALTQPASVSANPGETVEITCSGGSYSSYYYAWYQQKSPGSAPVTLIYSDDKRPSNIPSRFSGSASGSTATLTITGVRAEDEAVYFCGGYDQSSYTNPFGAGTTLTVL

A.
0.00143
0.00101
0.00143
